# Test system: quinolone resistant E. coli LZ3111
# RUN_DESCRIPTION: Antibacterial activity, MIC, quinolone resistant E. coli LZ3111
# Assay type: cell-based, Escherichia coli
# DETAILS: Escherichia coli, read-out: MIC, LZ3111
Structures can show the parent of a compound that is named as a salt.
PROPERTY_LABEL: MIC

COMPOUND	RESULT
CCc1c(-c2ccc(N3C[C@H]4CC[C@@H](N(C)C)[C@H]4C3)cc2)[nH]c(=O)c(C(=O)O)c1O.Cl	3.5 to 12.5 µg/mL
CCNc1ccc(-c2[nH]c(=O)c(C(=O)O)c(O)c2CC)cc1	12.5 to 150 µg/mL
CCc1c(-c2ccc(N3C[C@@H]4[C@H](C3)[C@H]4NC)cc2)[nH]c(=O)c(C(=O)O)c1O [Cpd 270, hydrochloride]	1 to 3.5 µg/mL
CCc1cc(C(=O)O)c(=O)[nH]c1-c1ccc(N2C[C@H]3CCN[C@H]3C2)cc1.O=C(O)C(F)(F)F	12.5 to 150 µg/mL
CCc1c(-c2ccc(N3C[C@H]4CCC[C@H](NC)[C@H]4C3)cc2)[nH]c(=O)c(C(=O)O)c1O.Cl	1 to 3.5 µg/mL
CCc1cc(C(=O)O)c(=O)[nH]c1-c1ccc(N2CCC(c3ccccn3)C2)cc1 (stereo not drawn)	12.5 to 150 µg/mL
CCc1cc(C(=O)O)c(=O)[nH]c1-c1ccc(N2CCC(OC)CC2)cc1	12.5 to 150 µg/mL
Cc1cc(C(=O)O)c(=O)[nH]c1-c1ccc(N(C)C)cc1	12.5 to 150 µg/mL
CCc1cc(C(=O)O)c(=O)[nH]c1-c1ccc(N2CCNCC2)c(F)c1.O=C(O)C(F)(F)F	12.5 to 150 µg/mL
CCc1cc(C(=O)O)c(=O)[nH]c1-c1ccc(N2CCOCC2)cc1	12.5 to 150 µg/mL

Answer with the recorded MIC for the compound listed here: "CC(C)c1c(-c2ccc(N(C)C)cc2)[nH]c(=O)c(C(=O)O)c1O"
12.5 to 150 µg/mL

Answer with the recorded MIC for the compound listed here: "C/C=C/c1c(-c2ccc(N(C)C)cc2)[nH]c(=O)c(C(=O)O)c1O"
12.5 to 150 µg/mL

Answer with the recorded MIC for the compound listed here: "CCc1cc(C(=O)O)c(=O)[nH]c1-c1ccc(N2CCCCC2)cc1"
12.5 to 150 µg/mL

Answer with the recorded MIC for the compound listed here: CCc1cc(C(=O)O)c(=O)[nH]c1-c1ccc(N2CCC(NCc3ccccc3)C2)cc1.Cl (stereo not drawn)
12.5 to 150 µg/mL

Answer with the recorded MIC for the compound listed here: "CCc1c(-c2ccc(N3C[C@H]4CC[C@H](N)[C@H]4C3)cc2)[nH]c(=O)c(C(=O)O)c1O.O=C(O)C(F)(F)F"
3.5 to 12.5 µg/mL

###

# MIC values compiled below
# Test system: super sensitive Gram-negative Escherichia coli (E. coli) BAS849
# RUN_DESCRIPTION: Antibacterial activity, microbroth dilution MIC, E. coli BAS849
# Assay type: cell-based
# DETAILS: Escherichia coli, read-out: MIC, BAS849

Answer with the recorded MIC for the compound listed here: "CCc1cc(C(=O)O)c(=O)[nH]c1-c1ccc(N2C[C@H]3CCN(Cc4ccccc4)[C@H]3C2)cc1.O=C(O)C(F)(F)F"
< 1 µg/mL

Answer with the recorded MIC for the compound listed here: "CCc1cc(C(=O)O)c(=O)[nH]c1-c1ccc(N2C[C@H]3CCC[C@@H](NC)[C@H]3C2)cc1"
1 to 3.5 µg/mL

Answer with the recorded MIC for the compound listed here: "CCc1c(-c2ccc(N3C[C@H]4CC[C@H](N)[C@H]4C3)cc2)[nH]c(=O)c(C(=O)O)c1O.O=C(O)C(F)(F)F"
1 to 3.5 µg/mL

Answer with the recorded MIC for the compound listed here: "CCc1c(-c2ccc(N3CCNCC3)cc2)[nH]c(=O)c(C(=O)O)c1O.O=C(O)C(F)(F)F"
1 to 3.5 µg/mL
